src = patent US8273768B2

Tested on: MDA-MB 435
methodNotes: Study of cytotoxicity (CellTiter-Blue, 72 hours)
Type: cell-based
experimentalConditions: Homo sapiens, MDA-MB-435; 72 hours of incubation; read-out: IC50 for different cell lines: M435
Would you mind telling me the reported IC50 of each entry?
Give the quantity in µM, number only.

Given item C=C(c1ccc(OC)c(OC(C)=O)c1)c1cc(OC)c(OC)c(OC)c1 , the value recorded as its IC50 is 0.011

Given item C=C(c1ccc(OC)c(OC(=O)C(C)(C)C)c1)c1cc(OC)c(OC)c(OC)c1 , the value recorded as its IC50 is 0.025

Given item C=C(c1ccc(OC)cc1)c1cc(OC)c(OC)c(OC)c1 , the value recorded as its IC50 is 0.025

Given item C=C(c1ccc(OC)c(O)c1)c1cc(OC)c(OC)c(OC)c1 , the value recorded as its IC50 is 0.0045

----------
Tested on: HCT116
methodNotes: Study of cytotoxicity (CellTiter-Blue, 72 hours)
Format: cell-based
experimentalConditions: Homo sapiens, HCT-116; 72 hours of incubation; read-out: IC50 for different cell lines: HCT116
Would you mind telling me the reported log10 of IC50 of each entry?
On a log10 scale: recorded IC50, unit nM.

Given item C=C(c1ccc(OC)c(OC(C)=O)c1)c1cc(OC)c(OC)c(OC)c1 , the value recorded as its log10 of IC50 is 0.90

Given item C=C(c1ccc(OC)c(OC(=O)[C@@H](COC(C)(C)C)NC(=O)OCC2c3ccccc3-c3ccccc32)c1)c1cc(OC)c(OC)c(OC)c1 , the value recorded as its log10 of IC50 is 0.90

Given item C=C(c1ccc(OC)c(OC(=O)C(C)(C)C)c1)c1cc(OC)c(OC)c(OC)c1 , the value recorded as its log10 of IC50 is 0.90

Given item C=C(c1ccc(OC)c(OC(=O)CN(C)C)c1)c1cc(OC)c(OC)c(OC)c1 , the value recorded as its log10 of IC50 is 0.48

Given item C=C(c1ccc(OC)cc1)c1cc(OC)c(OC)c(OC)c1 , the value recorded as its log10 of IC50 is 1.62

Given item C=C(c1ccc(OC)c(OC(=O)Cc2cccc3c(=O)c4ccc(C)c(C)c4oc23)c1)c1cc(OC)c(OC)c(OC)c1 , the value recorded as its log10 of IC50 is 0.85

Given item C=C(c1ccc(OC)c(F)c1)c1cc(OC)c(OC)c(OC)c1 , the value recorded as its log10 of IC50 is 0.85

Given item C=C(c1ccc(OC)c(OC(=O)c2ccncc2)c1)c1cc(OC)c(OC)c(OC)c1 , the value recorded as its log10 of IC50 is 0.48

Given item C=C(c1ccc(OC)c(OC(=O)CCC(=O)O)c1)c1cc(OC)c(OC)c(OC)c1 , the value recorded as its log10 of IC50 is 0.70

Given item C=C(c1ccc(OC)c(OC(=O)CCCc2ccc(N(CCCl)CCCl)cc2)c1)c1cc(OC)c(OC)c(OC)c1 , the value recorded as its log10 of IC50 is 1.40

----------
measurementTarget: purified tubulin from pig brains (Sus scrofa, UniProt P02550+P02554)
Construct: from pig brains, where it forms 20-25% of the soluble proteins
Sequence (P02554 whole entry): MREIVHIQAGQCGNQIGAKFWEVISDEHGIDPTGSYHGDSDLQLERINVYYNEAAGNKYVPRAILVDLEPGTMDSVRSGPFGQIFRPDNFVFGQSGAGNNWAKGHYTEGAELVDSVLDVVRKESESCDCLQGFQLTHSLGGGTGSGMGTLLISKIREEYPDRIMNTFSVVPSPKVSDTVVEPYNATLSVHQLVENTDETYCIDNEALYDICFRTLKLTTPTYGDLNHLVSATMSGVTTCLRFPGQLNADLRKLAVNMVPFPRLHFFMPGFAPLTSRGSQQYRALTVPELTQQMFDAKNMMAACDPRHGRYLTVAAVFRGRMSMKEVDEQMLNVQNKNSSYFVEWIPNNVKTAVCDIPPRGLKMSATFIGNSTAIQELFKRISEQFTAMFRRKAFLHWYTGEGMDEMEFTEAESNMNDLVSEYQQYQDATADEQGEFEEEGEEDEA
Sequence (P02550 whole entry): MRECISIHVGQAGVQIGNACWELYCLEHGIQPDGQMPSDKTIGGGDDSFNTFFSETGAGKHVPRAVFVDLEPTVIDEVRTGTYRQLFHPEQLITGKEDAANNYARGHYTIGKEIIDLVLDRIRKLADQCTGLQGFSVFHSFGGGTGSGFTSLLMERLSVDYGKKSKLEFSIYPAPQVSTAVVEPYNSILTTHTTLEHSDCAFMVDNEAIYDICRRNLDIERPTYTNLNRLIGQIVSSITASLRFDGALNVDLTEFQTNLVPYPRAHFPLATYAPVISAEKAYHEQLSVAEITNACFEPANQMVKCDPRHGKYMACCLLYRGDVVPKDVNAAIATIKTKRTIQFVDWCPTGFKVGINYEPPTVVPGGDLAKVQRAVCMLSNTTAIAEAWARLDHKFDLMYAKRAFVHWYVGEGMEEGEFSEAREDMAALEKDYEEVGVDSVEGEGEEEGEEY
methodNotes: Inhibition of polymerization of tubulin (turbidimetry)
experimentalConditions: pig brain tubulin, turbidimetry at 350 nm
readoutKind: IC50 (nM)
Give the quantity in nM, number only.

Summary line: C=C(c1ccc(OC)c(O)c1)c1cc(OC)c(OC)c(OC)c1 [(I-1)] , purified tubulin from pig brains (Sus scrofa, UniProt P02550+P02554), reported IC50 = 2200

Summary line: C=C(c1ccc(OC)c(N)c1)c1cc(OC)c(OC)c(OC)c1 [(I-17)] , purified tubulin from pig brains (Sus scrofa, UniProt P02550+P02554), reported IC50 = 1800

Summary line: C=C(c1ccc(OC)c(F)c1)c1cc(OC)c(OC)c(OC)c1 [(I-22)] , purified tubulin from pig brains (Sus scrofa, UniProt P02550+P02554), reported IC50 = 4100

----------
System: U87
methodNotes: Study of cytotoxicity (CellTiter-Blue, 72 hours)
Format: cell-based
experimentalConditions: Homo sapiens, U-87 MG, 72 h, read-out: IC50 for different cell lines: U87
readoutKind: IC50 (nM)
Give the quantity in nM, number only.

Given item C=C(c1ccc(OC)c(OC(=O)CCCc2ccc(N(CCCl)CCCl)cc2)c1)c1cc(OC)c(OC)c(OC)c1 , the value recorded as its IC50 is 35

----------
System: MDA-MB 231
methodNotes: Study of cytotoxicity (CellTiter-Blue, 72 hours)
Type: cell-based
experimentalConditions: Homo sapiens, MDA-MB-231; 72 hours of incubation; read-out: IC50 for different cell lines: M231
Rule: IC50 below 9 nM gives label 1, anything at or above gives label 0.

Input C=C(c1ccc(OC)c(OC(=O)C(C)(C)C)c1)c1cc(OC)c(OC)c(OC)c1 ; condition: IC50 strictly below 9 nM. Does it hold?
label 0

Input C=C(c1ccc(OC)c(N)c1)c1cc(OC)c(OC)c(OC)c1 ; condition: IC50 strictly below 9 nM. Does it hold?
label 1

Input C=C(c1ccc(OC)cc1)c1cc(OC)c(OC)c(OC)c1 ; condition: IC50 strictly below 9 nM. Does it hold?
label 0

Input C=C(c1ccc(OC)c(O)c1)c1cc(OC)c(OC)c(OC)c1 ; condition: IC50 strictly below 9 nM. Does it hold?
label 1

----------
Test system: MDA-MB 435
methodNotes: Study of cytotoxicity (CellTiter-Blue, 72 hours)
Type: cell-based
experimentalConditions: Homo sapiens, MDA-MB-435, 72 h, read-out: IC50 for different cell lines: M435
readoutKind: IC50 (nM)
Give the quantity in nM, number only.

Given item C=C(c1ccc(OC)c(OC(=O)CCCc2ccc(N(CCCl)CCCl)cc2)c1)c1cc(OC)c(OC)c(OC)c1 [(I-8)] , the value recorded as its IC50 is 40

----------
System: MDA-MB 231
methodNotes: Study of cytotoxicity (CellTiter-Blue, 72 hours)
Format: cell-based
experimentalConditions: Homo sapiens, MDA-MB-231, 72 h, read-out: IC50 for different cell lines: M231
readoutKind: IC50 (nM)
Give the quantity in nM, number only.

Given item C=C(c1ccc(OC)c(OC(=O)CCCc2ccc(N(CCCl)CCCl)cc2)c1)c1cc(OC)c(OC)c(OC)c1 , the value recorded as its IC50 is 50
